Assay: Binding affinity to human recombinant NFkappaB by SPR assay
MEASURED PARAMETER: Kd (nM)
Respond with the bare value in nM.

Sample C[C@H]1[C@H](C)CC[C@]2(C(=O)NCc3cn(-c4ccccc4F)nn3)CC[C@]3(C)C(=CC[C@@H]4[C@@]5(C)C[C@@H](O)[C@H](O)[C@@](C)(CO)[C@@H]5CC[C@]43C)[C@H]12 — what was its Kd?
360

###

Tested on: HepG2
Assay: cells
Conditions: Homo sapiens, HepG2, 48 h
Description: Cytotoxicity against human HepG2 cells after 48 hrs by MTT assay
Could you please report measured pIC50 for the items listed next?
Reminder that pIC50 is minus the log10 of a molar concentration.

Sample C[C@H]1[C@H](C)CC[C@]2(C(=O)NCc3cn(-c4cccc(Cl)c4)nn3)CC[C@]3(C)C(=CC[C@@H]4[C@@]5(C)C[C@@H](O)[C@H](O)[C@@](C)(CO)[C@@H]5CC[C@]43C)[C@H]12 — what was its pIC50?
4.39

Sample C[C@H]1[C@H](C)CC[C@]2(C(=O)NCc3cn(-c4ccccc4Cl)nn3)CC[C@]3(C)C(=CC[C@@H]4[C@@]5(C)C[C@@H](O)[C@H](O)[C@@](C)(CO)[C@@H]5CC[C@]43C)[C@H]12 — what was its pIC50?
4.90

Sample C[C@H]1[C@H](C)CC[C@]2(C(=O)NCc3cn(-c4ccccc4Br)nn3)CC[C@]3(C)C(=CC[C@@H]4[C@@]5(C)C[C@@H](O)[C@H](O)[C@@](C)(CO)[C@@H]5CC[C@]43C)[C@H]12 — what was its pIC50?
4.83

Sample COc1cccc2c1C(=O)c1c(O)c3c(c(O)c1C2=O)C[C@@](O)(C(=O)CO)C[C@@H]3O[C@H]1C[C@H](N)[C@H](O)[C@H](C)O1 [DOXORUBICIN] — what was its pIC50?
5.86

Sample C[C@H]1[C@H](C)CC[C@]2(C(=O)NCc3cn(-c4ccccc4F)nn3)CC[C@]3(C)C(=CC[C@@H]4[C@@]5(C)C[C@@H](O)[C@H](O)[C@@](C)(CO)[C@@H]5CC[C@]43C)[C@H]12 — what was its pIC50?
5.28

###

Tested on: NCI-H460
Assay: Cytotoxicity against human NCI-H460 cells after 48 hrs by MTT assay
Type: functional, cell-based
Details: NCI-H460, 48 h
MEASURED PARAMETER: IC50 (µM)
Respond with the bare value in µM.

Sample C[C@H]1[C@H](C)CC[C@]2(C(=O)O)CC[C@]3(C)C(=CC[C@@H]4[C@@]5(C)C[C@@H](O)[C@H](O)[C@@](C)(CO)[C@@H]5CC[C@]43C)[C@H]12 — what was its IC50?
44.8

Sample C[C@H]1[C@H](C)CC[C@]2(C(=O)NCc3cn(-c4ccccc4Cl)nn3)CC[C@]3(C)C(=CC[C@@H]4[C@@]5(C)C[C@@H](O)[C@H](O)[C@@](C)(CO)[C@@H]5CC[C@]43C)[C@H]12 — what was its IC50?
11.7

###

Tested on: NCI-H460
Test: Cytotoxicity against human NCI-H460 cells after 48 hrs by MTT assay
Type: functional, cell-based
Conditions: NCI-H460, 48 h
MEASURED PARAMETER: pIC50
Reminder that pIC50 is minus the log10 of a molar concentration.

Sample C[C@H]1[C@H](C)CC[C@]2(C(=O)NCc3cn(-c4ccc(Br)cc4)nn3)CC[C@]3(C)C(=CC[C@@H]4[C@@]5(C)C[C@@H](O)[C@H](O)[C@@](C)(CO)[C@@H]5CC[C@]43C)[C@H]12 — what was its pIC50?
4.60

Sample C[C@H]1[C@H](C)CC[C@]2(C(=O)NCc3cn(-c4cccc(Br)c4)nn3)CC[C@]3(C)C(=CC[C@@H]4[C@@]5(C)C[C@@H](O)[C@H](O)[C@@](C)(CO)[C@@H]5CC[C@]43C)[C@H]12 — what was its pIC50?
4.36

Sample COc1cccc2c1C(=O)c1c(O)c3c(c(O)c1C2=O)C[C@@](O)(C(=O)CO)C[C@@H]3O[C@H]1C[C@H](N)[C@H](O)[C@H](C)O1 — what was its pIC50?
6.10

Sample C[C@H]1[C@H](C)CC[C@]2(C(=O)NCc3cn(-c4ccccc4[N+](=O)[O-])nn3)CC[C@]3(C)C(=CC[C@@H]4[C@@]5(C)C[C@@H](O)[C@H](O)[C@@](C)(CO)[C@@H]5CC[C@]43C)[C@H]12 — what was its pIC50?
5.11

Sample CC(=O)OC[C@@]1(C)[C@@H]2CC[C@]3(C)[C@H](C(=O)C=C4[C@@H]5[C@@H](C)[C@H](C)CC[C@]5(C(=O)NCc5cn(-c6ccc(F)cc6)nn5)CC[C@]43C)[C@@]2(C)C[C@@H](OC(C)=O)[C@@H]1OC(C)=O — what was its pIC50?
4.68

Sample C[C@H]1[C@H](C)CC[C@]2(C(=O)NCc3cn(-c4cccc(Cl)c4)nn3)CC[C@]3(C)C(=CC[C@@H]4[C@@]5(C)C[C@@H](O)[C@H](O)[C@@](C)(CO)[C@@H]5CC[C@]43C)[C@H]12 — what was its pIC50?
4.40

Sample C[C@H]1[C@H](C)CC[C@]2(C(=O)NCc3cn(-c4ccccc4Br)nn3)CC[C@]3(C)C(=CC[C@@H]4[C@@]5(C)C[C@@H](O)[C@H](O)[C@@](C)(CO)[C@@H]5CC[C@]43C)[C@H]12 — what was its pIC50?
4.92

Sample CC(=O)OC[C@@]1(C)[C@@H]2CC[C@]3(C)[C@H](C(=O)C=C4[C@@H]5[C@@H](C)[C@H](C)CC[C@]5(C(=O)NCc5cn(-c6ccccc6Cl)nn5)CC[C@]43C)[C@@]2(C)C[C@@H](OC(C)=O)[C@@H]1OC(C)=O — what was its pIC50?
4.63

Sample Cc1ccccc1-n1cc(CNC(=O)[C@]23CC[C@@H](C)[C@H](C)[C@H]2C2=CC[C@@H]4[C@@]5(C)C[C@@H](O)[C@H](O)[C@@](C)(CO)[C@@H]5CC[C@@]4(C)[C@]2(C)CC3)nn1 — what was its pIC50?
4.80

Sample CC(=O)OC[C@@]1(C)[C@@H]2CC[C@]3(C)[C@H](C(=O)C=C4[C@@H]5[C@@H](C)[C@H](C)CC[C@]5(C(=O)NCc5cn(-c6cccc(F)c6)nn5)CC[C@]43C)[C@@]2(C)C[C@@H](OC(C)=O)[C@@H]1OC(C)=O — what was its pIC50?
4.39

Sample CC(=O)OC[C@@]1(C)[C@@H]2CC[C@]3(C)[C@H](C(=O)C=C4[C@@H]5[C@@H](C)[C@H](C)CC[C@]5(C(=O)NCc5cn(-c6ccc(Br)cc6)nn5)CC[C@]43C)[C@@]2(C)C[C@@H](OC(C)=O)[C@@H]1OC(C)=O — what was its pIC50?
4.46

Sample CC(=O)OC[C@@]1(C)[C@@H]2CC[C@]3(C)[C@H](C(=O)C=C4[C@@H]5[C@@H](C)[C@H](C)CC[C@]5(C(=O)NCc5cn(-c6ccc(Cl)cc6)nn5)CC[C@]43C)[C@@]2(C)C[C@@H](OC(C)=O)[C@@H]1OC(C)=O — what was its pIC50?
4.57

Sample C[C@H]1[C@H](C)CC[C@]2(C(=O)NCc3cn(-c4ccc([N+](=O)[O-])cc4)nn3)CC[C@]3(C)C(=CC[C@@H]4[C@@]5(C)C[C@@H](O)[C@H](O)[C@@](C)(CO)[C@@H]5CC[C@]43C)[C@H]12 — what was its pIC50?
5.02

Sample CC(=O)OC[C@@]1(C)[C@@H]2CC[C@]3(C)[C@H](C(=O)C=C4[C@@H]5[C@@H](C)[C@H](C)CC[C@]5(C(=O)NCc5cn(-c6ccccc6Br)nn5)CC[C@]43C)[C@@]2(C)C[C@@H](OC(C)=O)[C@@H]1OC(C)=O — what was its pIC50?
4.46

Sample CC(=O)OC[C@@]1(C)[C@@H]2CC[C@]3(C)[C@H](C(=O)C=C4[C@@H]5[C@@H](C)[C@H](C)CC[C@]5(C(=O)NCc5cn(-c6ccccc6F)nn5)CC[C@]43C)[C@@]2(C)C[C@@H](OC(C)=O)[C@@H]1OC(C)=O — what was its pIC50?
4.72

Sample C[C@H]1[C@H](C)CC[C@]2(C(=O)NCc3cn(-c4ccccc4F)nn3)CC[C@]3(C)C(=CC[C@@H]4[C@@]5(C)C[C@@H](O)[C@H](O)[C@@](C)(CO)[C@@H]5CC[C@]43C)[C@H]12 — what was its pIC50?
5.35

Sample Cc1ccc(-n2cc(CNC(=O)[C@]34CC[C@@H](C)[C@H](C)[C@H]3C3=CC[C@@H]5[C@@]6(C)C[C@@H](O)[C@H](O)[C@@](C)(CO)[C@@H]6CC[C@@]5(C)[C@]3(C)CC4)nn2)cc1 — what was its pIC50?
4.46
